These measurements were taken from patent US20260217708A1.

TESTED_TARGET: system Xc^− (Homo sapiens, UniProt Q9UPY5)
Sequence (Q9UPY5 1-501): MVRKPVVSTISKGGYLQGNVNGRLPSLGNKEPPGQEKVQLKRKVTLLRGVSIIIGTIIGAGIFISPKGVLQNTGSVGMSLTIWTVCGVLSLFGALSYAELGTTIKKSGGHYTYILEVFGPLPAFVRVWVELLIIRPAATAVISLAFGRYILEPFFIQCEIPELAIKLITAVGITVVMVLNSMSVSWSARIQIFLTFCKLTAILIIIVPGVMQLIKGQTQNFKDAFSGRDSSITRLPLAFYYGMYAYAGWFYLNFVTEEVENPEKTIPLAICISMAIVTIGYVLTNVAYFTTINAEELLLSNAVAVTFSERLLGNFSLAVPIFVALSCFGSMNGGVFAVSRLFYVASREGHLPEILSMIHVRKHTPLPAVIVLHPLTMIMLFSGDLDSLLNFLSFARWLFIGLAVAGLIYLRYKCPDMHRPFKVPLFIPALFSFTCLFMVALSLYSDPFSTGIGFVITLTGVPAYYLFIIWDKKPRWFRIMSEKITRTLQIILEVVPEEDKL
Sequence (P08195 1-529 partner): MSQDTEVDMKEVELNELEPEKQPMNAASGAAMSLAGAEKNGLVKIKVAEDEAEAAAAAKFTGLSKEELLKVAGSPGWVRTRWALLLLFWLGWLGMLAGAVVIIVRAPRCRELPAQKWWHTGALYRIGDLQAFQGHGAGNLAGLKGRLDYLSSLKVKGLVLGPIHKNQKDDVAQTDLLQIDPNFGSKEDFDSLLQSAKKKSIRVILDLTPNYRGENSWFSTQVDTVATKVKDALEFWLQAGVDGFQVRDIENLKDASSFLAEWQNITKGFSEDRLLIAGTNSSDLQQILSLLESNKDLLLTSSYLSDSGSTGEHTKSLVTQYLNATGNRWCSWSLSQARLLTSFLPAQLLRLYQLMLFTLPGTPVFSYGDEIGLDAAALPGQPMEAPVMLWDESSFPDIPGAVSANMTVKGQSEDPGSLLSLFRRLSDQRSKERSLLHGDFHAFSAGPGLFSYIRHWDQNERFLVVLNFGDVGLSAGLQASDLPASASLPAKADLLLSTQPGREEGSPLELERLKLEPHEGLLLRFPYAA
MEASUREMENT_DESCRIPTION: [^14C]L-Cystine uptake assay
Format: cell-based
Design: endogenous in cells; host or cells: H4 cells
TEST_CONDITIONS: H4 cells, sodium-free HEPES buffer, 0.5 μM L-[14C]Cystine and 4.5 μM L-Cystine, 1 hour at 37° C.; read-out: pIC50 [^14C] L-Cystine uptake assay (converted)
ENDPOINT_NAME: IC50

Worked examples, 3 compounds total:
INSERT INTO assay_data (compound, result) VALUES
  ('Cc1cc2c(c(F)n1)-c1ccnnc1C(C)C(=O)N2CC(=O)Nc1ccc(C(F)F)cc1 (single isomer, unassigned)', '39.8 to 100 nM'),
  ('Cc1cc2c(c(F)n1)-c1ccnn1[C@@H](C)C(=O)N2CC(=O)Nc1ccc(C(F)(F)F)cc1 (single isomer, unassigned)', '39.8 to 100 nM'),
  ('Cc1cc2c(c(F)n1)-c1cccnc1[C@@H](C)C(=O)N2CC(=O)Nc1ccc2cnc(F)cc2c1 (single isomer, unassigned)', '15.8 to 39.8 nM');

**Q:** # input compound: CC1C(=O)N(CC(=O)Nc2ccc(Cl)c(F)c2)c2cc(C(F)(F)F)nc(O)c2-c2ccccc21 (single isomer, unassigned) ; wanted: its IC50
**A:** 39.8 to 100 nM

**Q:** Then this compound: Cc1cc2c(c(F)n1)-c1cccnc1[C@@H](C)C(=O)N2CC(=O)Nc1ccc(Cl)c(F)c1F
**A:** 100 to 501 nM

**Q:** Next record, please: Cc1cc2c(c(Cl)n1)-c1cccnc1C(C)C(=O)N2CC(=O)Nc1ccc(C(F)(F)F)cn1 (single isomer, unassigned)
**A:** 39.8 to 100 nM

**Q:** Another compound to look at: Cc1cc2c(cc1C#N)-c1cc(F)cnc1C(C)C(=O)N2CC(=O)Nc1ccc(C(F)F)cc1 (single isomer, unassigned)
**A:** < 15.8 nM

**Q:** Let us now turn to Cc1cc2c(cc1C)N(CC(=O)Nc1ccc(C(F)(F)F)cc1)C(=O)Cc1cccnc1-2
**A:** 39.8 to 100 nM
